tested on: VchCAST RNA-guided transposition machinery (E. coli BL21(DE3) host, lacZ target); assay: relative integration efficiency (T-LR orientation) vs wild-type transposon end (log2 (normalized fold change)); transposon end mutated: right end (5 bp flank + 75 bp right end); higher = more efficient transposition
Lab note: compare relative integration efficiency (log2) against -0.2. Equal or greater, write YES. Smaller, write NO.

Here are 5 sequences together with their reported answers.
Sequence Record	Class Name
ACATTTGTTGATACAACCATAAAAGGATAATTACACCCATAAATGGATAATTATCACACCCATAAATGGATATTGCCTCTGATCATAGTCAGACCAACATTGCTACGACCCGTATTCGCACCGACAC	NO
ACATTTGTTGATACAACCATAAAATGATAATTACACCCATAAATTGATAATTATCACACCCATAAATTGATATTCGGACTGATCATAGTCAGACCAACATTGCTACGACCCGTATTCGCACCGACAC	YES
ACATTTGTGGATACAACCATAAAATGATAATTACCACCCATAAATTGATAATTATCACACCCATTTAACTATAACGCTCTGATCATAGTCAGACCAACATTGCTACGACCCGTATTCGCACCGACAC	YES
ACATTTGTTGATACAACCATAAAATGATCCTTACACCCATAAATTGATAATTATCACACCCATAAATTGATATTGCCTCTGATCATAGTCAGACCAACATTGCTACGACCCGTATTCGCACCGACAC	NO
ACATTTGTTGATACCACCATAAAATGGTAATTACACCCATACATTGATAATTATCACACCCAATTTAACTATAACGCTCTGATCATAGTCAGACCAACATTGCTACGACCCGTATTCGCACCGACAC	YES

Alright, here's another sequence for you.
Is the recorded value of relative integration efficiency (log2) equal to or greater than -0.2 for this sequence? `ACATTTGTTGATACAACCATAAAATGATAATTAATAATTATTTACACCCATAAATTGATAATTATCAACAAACGCCCGGTCGCGGTACTCTGATCATAGTCAGACCAACATTGCTACGACCCGTATT`
YES

====

Quick reference: relative integration efficiency (log2) of the listed items.
test system: VchCAST RNA-guided transposition machinery (E. coli BL21(DE3) host, lacZ target); experiment: relative integration efficiency (T-RL orientation) vs wild-type transposon end (log2 (normalized fold change)); transposon end mutated: right end (5 bp flank + 75 bp right end); higher = more efficient transposition
The response must contain the number and no unit.

Example sequences with recorded relative integration efficiency (log2):
Sequence Record	relative integration efficiency (log2)
ACAGGTGTTGATACAACCATAAAATGATAATTACACCCATAAATTGATAATTATCACACCCATAAATTGATATTGCCTCTGATCATAGTCAGACCAACATTGCTACGACCCGTATTCGCACCGACAC	-0.284
ACATTTGTTGATACAACCATAAAATGATCCTTACACCCATAAATTGATAATTATCACACCCATAAATTGATATTGCCTCTGATCATAGTCAGACCAACATTGCTACGACCCGTATTCGCACCGACAC	-1.03
ACATTTGTTGATACAACCCTAAAATGATAATTACACCCATAAATGGATCATTATCACACCCAATTTAACTATAACGCTCTGATCATAGTCAGACCAACATTGCTACGACCCGTATTCGCACCGACAC	-3.87
ACATTTGTTGATACAACCATAAAATGATAATTAATAATTATTTATAATCAGCAACACCCATAAATTGATAATTATCACACCCATAAATTGATATTGCCTCTGATCATAGTCAGACCAACATTGCTAC	-3.61
ACATTTGTTTATACAACCATAAAATGATAATTACACCCATAAATGGATTATTATCACACCCAATTTAACTATAACGCTCTGATCATAGTCAGACCAACATTGCTACGACCCGTATTCGCACCGACAC	-2.39
ACATTTGTTGATACAACCATACCCGGATAATTACACCCATAAATTGATAATTATCACACCCATAAATTGATATTGCCTCTGATCATAGTCAGACCAACATTGCTACGACCCGTATTCGCACCGACAC	-3.77
ACATTTGTTGATACAACCATAAAATGATAATTACACCCATAAATTGATAATTATCACACCCATAAATTGATATCTCTGATCATAGTCAGACCAACATTGCTACGACCCGTATTCGCACCGACACTGA	-0.049
ACATTTGTTGATACAACCATAACCGTATAATTACACCCATAAATTGATAATTATCACACCCATAAATTGATATTGCCTCTGATCATAGTCAGACCAACATTGCTACGACCCGTATTCGCACCGACAC	-1.41

I would be grateful if you could share the reported relative integration efficiency (log2) for `ACATTTGTTGATACAACCATACAATGATAATTACACCCATACATTGATAATTATCACACCCATACATTGATATTGCCTCTGATCATAGTCAGACCAACATTGCTACGACCCGTATTCGCACCGACAC` .
-2.95

// same read-out, input: `ACATTTGTTGATACAACCAATAAATGATAATTACACCCATAAATTGATAATGATGACACCGAATTTAACTATAACGCTCTGATCATAGTCAGACCAACATTGCTACGACCCGTATTCGCACCGACAC`
-1.56

====

tested on: VchCAST RNA-guided transposition machinery (E. coli BL21(DE3) host, lacZ target); test: relative integration efficiency (T-RL orientation) vs wild-type transposon end (log2 (normalized fold change)); transposon end mutated: right end (5 bp flank + 75 bp right end); higher = more efficient transposition
# relative integration efficiency (log2) per entry

Please report the recorded relative integration efficiency (log2) for `ACATTTGTTGATACAACCATATATTGATATCTCCACCCATAAATTGATATTGCTCACAACCATAAGTTGATATTTTCTCTGATCATAGTCAGACCAACATTGCTACGACCCGTATTCGCACCGACAC` .
-0.572

Again, but for `ACATTTGTTGATACAACCATCAAATGGTAATTCCACCCCTACATTGATAATTATCACACCCAATTTAACTATAACGCTCTGATCATAGTCAGACCAACATTGCTACGACCCGTATTCGCACCGACAC`
-5.71

`ACATTTGTTGATACAACCATAAAATGATAATTACACCCATAAATTGATAATTATCACACCCATAAATTGATATTGCCTCTGGCGCTCTGTACCCCGCTCGGTCCTCCCGCGCATCGCGCACCGACAC` , same question.
0.194

Same lookup for `ACATTTGTTGATACAACCATAAAATGATAATTACACCCATAAATTGATAATTATCACACCCATAAATTGATAGGTAAGAGGATCATAGTCAGACCAACATTGCTACGACCCGTATTCGCACCGACAC` , please.
-0.281

One more sequence: `ACATTTGTTGATACACCCATAAATTGATATTGCCAACCATAAAGTGATATTTATCAGTGGGTATTTAACTATAACGCTCTGATCATAGTCAGACCAACATTGCTACGACCCGTATTCGCACCGACAC`
-1.12

====

tested on: VchCAST RNA-guided transposition machinery (E. coli BL21(DE3) host, lacZ target); test: relative integration efficiency (T-LR orientation) vs wild-type transposon end (log2 (normalized fold change)); transposon end mutated: right end (5 bp flank + 75 bp right end); higher = more efficient transposition
# binarize relative integration efficiency (log2): threshold -0.5 inclusive, high side met, low side not met

Sequence Record	Class Name
ACATTTGTTGATACAACCATAAAATGATAATTACACCCATAAATTGATAATTATCACACCCATAAATTGATATTGCCCAACCATAAAATGATAATTATCTGATCATAGTCAGACCAAGCACCGACAC	not met

Tell me whether relative integration efficiency (log2) is at least -0.5 here: `ACATTTGTTGATACAACCATAAAATGATAATTACACCCAATAATTGATAATTATCACACCCATAAATTGATATTGCCTCTGATCATAGTCAGACCAACATTGCTACGACCCGTATTCGCACCGACAC`
met

Follow-up entry: `ACATTTGTTGATACAACCATAAAATGATAATTACACGGATAAATTGATAATTATCACACCCATAAATTGATATTGCCTCTGATCATAGTCAGACCAACATTGCTACGACCCGTATTCGCACCGACAC`
met

Thanks! And `ACATTTGTTGATATAATTATCATTTTATGGTTGCAACCATAAAATGATAATTATCACAACCATAAAATGATAATTACTCTGATCATAGTCAGACCAACATTGCTACGACCCGTATTCGCACCGACAC` ?
not met

Please do the same for `ACATTTGTTGATACACCCATAAATTGATATTGCCAACCATAAAGTGATATTTATCACAACCATAAAGTGATATTTACTCTGATCATAGTCAGACCAACATTGCTACGACCCGTATTCGCACCGACAC` as well.
met

Moving on to the next sequence: `CACGTTGTTGATACAACCATAAAATGATAATTACACCCATAAATTGATAATTATCACACCCATAAATTGATATTGCCTCTGATCATAGTCAGACCAACATTGCTACGACCCGTATTCGCACCGACAC`
met

What do you get for `ACATTAGTCGATACAACCATAAAATGATAATTACACCCATAAATGGATCATTATCACACCCAATTTAACTATAACGCTCTGATCATAGTCAGACCAACATTGCTACGACCCGTATTCGCACCGACAC` ?
not met

Cool, now `ACATTTGTTGATACAACCATAAGTTGATATTTTCAACCATAAAATGATAATTATCAGTGGGTATTTAACTATAACGCTCTGATCATAGTCAGACCAACATTGCTACGACCCGTATTCGCACCGACAC`
met

Would you kindly repeat that for `ACATTTGTTGATAACCAACGCCCCGTCGCCGGCACAAACGCCCGGTCGCCGGCTCAACAAACGCCCGGTCGCGGTACTCTGATCATAGTCAGACCAACATTGCTACGACCCGTATTCGCACCGACAC` ?
not met
